- Tested on: 786-0 renal
- experimental-details: NCI-60 one-dose screen, 48 h (100 = growth as untreated, 0 = no growth, -100 = all killed)
- assay-setup: 10 µM unless noted
This is part of a sample that, as a whole, favours compounds with a hit. Of some 83,000 tested, about 20% had one in any assay.
quantity-name: growth (%)
Give the number; % is assumed, so skip it.

Form: molecule = CC(=O)n1nc(C(=O)OC(C)C)c2cc(C)c(C)cc21 ; growth = 80.9

Form: molecule = COc1ccc(/C=C2\C(=O)N=C3N2NC(c2cc(Br)ccc2O)C=C(C)N3c2ccccc2)cc1 (centres undefined) ; growth = 101

Form: molecule = Cc1cccc(N2CCN(CC(O)COc3ccc(Cl)cc3)CC2)c1 (centres undefined) ; growth = 98

Form: molecule = O=C1CC(N2C(=O)/C(=C/C(Cl)=C\c3ccc([N+](=O)[O-])cc3)SC2=S)C(=O)N1c1ccc(Cl)cc1 (centres undefined) ; growth = -12.1

Form: molecule = CCOc1ccc(NC(=O)CSc2oc(-c3ccccc3)nc2S(=O)(=O)c2ccc(F)cc2)cc1 ; growth = 45.5

Form: molecule = CCN1CCN(Cc2cn(CC(=O)Nc3ccc4c(ccn4Cc4ccccc4)c3)nn2)CC1 ; growth = 97.8

Form: molecule = O=C(NNC(=O)c1ccc(-n2cc(-c3ccccc3)nn2)cc1)Nc1ccccc1 ; growth = 104

Form: molecule = CC1=C(CCC(C)N(C)Cc2ccc(OCCCN3CCCC3)cc2)C(C)(C)CCC1 (centres undefined) ; growth = 17.3

Form: molecule = CCCCCCCCCCCCCCCCCCOc1ccccc1CC(=O)OCC[N+]1(C)CCCC1 ; growth = 57.5
